Origin of measurements: patent US20260007758A1

# tgt: SST2 (Homo sapiens, UniProt P30874)
# Construct: host or cells: PathHunter CHO-K1 SST2 cells
# Sequence (P30874 whole entry): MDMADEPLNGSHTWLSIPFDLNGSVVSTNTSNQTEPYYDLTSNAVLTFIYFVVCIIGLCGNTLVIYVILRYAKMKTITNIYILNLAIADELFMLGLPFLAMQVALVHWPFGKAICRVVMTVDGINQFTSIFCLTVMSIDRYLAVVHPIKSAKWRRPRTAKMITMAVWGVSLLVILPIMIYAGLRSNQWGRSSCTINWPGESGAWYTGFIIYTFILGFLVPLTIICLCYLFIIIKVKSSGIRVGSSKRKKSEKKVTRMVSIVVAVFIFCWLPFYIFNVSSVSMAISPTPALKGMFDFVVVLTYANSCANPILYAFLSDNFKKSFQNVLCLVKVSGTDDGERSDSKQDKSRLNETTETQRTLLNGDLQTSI
# test_description: PathHunter CHO-K1 SST2 Internalization Assay
# Format: cell-based
# condition_context: PathHunter CHO-K1 SST2 cells; 90 min at 37 C; luminescence; read-out: Internalization EC50
experimental_endpoint: EC50 (nM)
Give the value in nM but do not write nM after it.

Reference set (2 entries):
mol | EC50 [nM]
CC[C@H](C)[C@@H]([C@@H](CC(=O)N1CCC[C@H]1[C@H](OC)[C@@H](C)C(=O)N[C@H](C)[C@@H](O)c1ccccc1)OC)N(C)C(=O)[C@@H](NC(=O)[C@H](C(C)C)N(C)C(=O)OCc1ccc(NC(=O)[C@H](CCCNC(N)=O)NC(=O)[C@@H](NC(=O)CCOCCOCCOCCOCCC(=O)NCCNc2ncc(-c3cc(C)cc(F)c3)c(N3CCC(N)CC3)c2-c2nc3ccc(Cl)cc3[nH]2)C(C)C)c(OCC(=O)O)c1)C(C)C | 8.1
CC[C@H](C)[C@@H]([C@@H](CC(=O)N1CCC[C@H]1[C@H](OC)[C@@H](C)C(=O)N[C@H](C)[C@@H](O)c1ccccc1)OC)N(C)C(=O)[C@H](C)NC(=O)[C@H](C(C)C)N(C)C(=O)OCc1ccc(NC(=O)[C@H](C)NC(=O)[C@@H](NC(=O)CCOCCNC(=O)CCNc2ncc(-c3cc(C)cc(F)c3)c(N3CCC(N)CC3)c2-c2nc3ccc(Cl)cc3[nH]2)C(C)C)c(O[C@@H]2O[C@H](C(=O)O)[C@@H](O)[C@H](O)[C@H]2O)c1 | 7.6

Fill in EC50 for record `CC[C@H](C)[C@@H]([C@@H](CC(=O)N1CCC[C@H]1[C@H](OC)[C@@H](C)C(=O)N[C@H](C)[C@@H](O)c1ccccc1)OC)N(C)C(=O)[C@@H](NC(=O)[C@H](C(C)C)N(C)C(=O)OCc1ccc(NC(=O)[C@H](CCCNC(N)=O)NC(=O)[C@@H](NC(=O)[C@H](CCC(=O)O)NC(=O)CCOCCC(=O)NCCNc2ncc(-c3cc(C)cc(F)c3)c(N3CCC(N)CC3)c2-c2nc3ccc(Cl)cc3[nH]2)C(C)C)cc1C(=O)NOC)C(C)C`
3.6
